Data origin, for the record: patent US6071884A

- procedure.text: Life-span-increasing effect on irradiation of a lethal dose of radiation
- Format: in vivo, mouse (BDF1)
- particulars: day 30; 10 mice/group; 9 Gy X-ray; 0.1 mg/kg i.v. days 0, 4, 8; controls per series 1, 1, 0, 0, 0, 0
measured.parameter: Number of Surviving Mice (mice)
Quick note: give the figure in mice, leave out the unit.

Which value of Number of Surviving Mice has been reported for `CCCCCCCCCCCCCCCCCCCCCC[C@@H](O)C(=O)N[C@@H](CO[C@H]1O[C@H](CO)[C@H](O)[C@H](O)[C@H]1O)[C@H](O)[C@H](O)CCCCCCCCCCC` in the records? 9

One more molecule: `CCCCCCCCCCCCCCCCCCCCCCCC(=O)N[C@@H](CO[C@H]1O[C@H](CO)[C@H](O)[C@H](O)[C@H]1O)[C@H](O)[C@H](O)CCCCCCCCCCCC(C)C` 9

One more molecule: `CCCCCCCCCCCCCCCCCCCCCCCC(=O)N[C@@H](CO[C@H]1O[C@H](CO)[C@H](O)[C@H](O)[C@H]1O)[C@H](O)CCCCCCCCCCC` 6

More entries:
Which value of Number of Surviving Mice has been reported for `CCCCCCCCCCCCC/C=C/[C@@H](O)[C@H](CO[C@H]1O[C@H](CO)[C@H](O)[C@H](O)[C@H]1O)NC(=O)CCCCCCCCCCCCC` in the records? 3

One more molecule: `CCCCCCCCCCCCCCCCCCCCCC[C@H](O)C(=O)N[C@@H](CO[C@H]1O[C@H](CO)[C@H](O)[C@H](O)[C@H]1O)[C@H](O)[C@H](O)CCCCCCCCCCCCC` 8

---

Measured Number of Surviving Mice, listed per entry for reference.
- procedure.text: Life-span-increasing effect on irradiation of a lethal dose of radiation
- Type: in vivo, mouse (BDF1)
- particulars: day 30; 10 mice/group; 9 Gy X-ray; 0.1 mg/kg i.v. days 0, 4, 8; controls per series 1, 1, 0, 0, 0, 0
Quick note: give the figure in mice, leave out the unit.

Consider the following illustrative entries.
Which value of Number of Surviving Mice has been reported for CCCCCCCCCCCCCCCCCCCCCCCCCC(=O)N[C@@H](CO[C@H]1O[C@H](CO)[C@H](O)[C@H](O)[C@H]1O)[C@H](O)[C@H](O)CCCCCCCCCCCCCC [Compound 33] in the records? 5

One more compound: CCCCCCCCCCCCCCCCCCCCCC[C@@H](O)C(=O)N[C@@H](CO[C@H]1O[C@H](CO)[C@H](O)[C@H](O)[C@H]1O)[C@H](O)[C@H](O)CCCCCCCCCCCCC [Compound 22] 8

One more compound: CCCCCCCCCCCCCCCCCCCCCC[C@@H](O)C(=O)N[C@@H](CO[C@H]1O[C@H](CO)[C@H](O)[C@H](O)[C@H]1O)[C@H](O)[C@H](O)CCCCCCCCCCCCCC [Compound 21] 10

One more compound: CCCCCCCCCCCCCCCCCCCCCC(=O)N[C@@H](CO[C@H]1O[C@H](CO)[C@H](O)[C@H](O)[C@H]1O)[C@H](O)CCCCCCCCCCCCCCC [Compound 2] 9

Continue with the compound presented below.
Which value of Number of Surviving Mice has been reported for CCCCCCCCCCCCCCCCCCCCCCCC[C@@H](O)C(=O)N[C@@H](CO[C@H]1O[C@H](CO)[C@H](O)[C@H](O)[C@H]1O)[C@H](O)[C@H](O)CCCCCCCCCCCCCC [Compound 25] in the records? 5

---

Measured activity at 1 µg/mL, listed per entry for reference.
- Tested on: marrow cells (mononuclear cell fraction)
- procedure.text: Proliferation-stimulating effect on marrow cell of mouse (3H-TdR uptake)
- Format: cell-based, mouse (BALB/c)
- particulars: 10^0 μg/ml, percentage of control, 72 h
Quick note: give the figure in %, leave out the unit.

Consider the following illustrative entries.
Which value of activity at 1 µg/mL has been reported for `CCCCCCCCCCCCCCCCCCCCCC[C@@H](O)C(=O)N[C@@H](CO[C@H]1O[C@H](CO)[C@H](O)[C@H](O)[C@H]1O)[C@H](O)[C@H](O)CCCCCCCCCCC` in the records? 761

One more compound: `CCCCCCCCCCCCC/C=C/[C@@H](O)[C@H](CO[C@H]1O[C@H](CO)[C@H](O)[C@H](O)[C@H]1O)NC(=O)CCCCCCCCCCCCCCCCC` 979

Continue with the compound presented below.
Which value of activity at 1 µg/mL has been reported for `CCCCCCCCCCCCCCCCCCCCCC[C@H](O)C(=O)N[C@@H](CO[C@H]1O[C@H](CO)[C@H](O)[C@H](O)[C@H]1O)[C@H](O)[C@H](O)CCCCCCCCCCCC(C)C` in the records? 712

---

- System: marrow cells (mononuclear cell fraction)
- procedure.text: Proliferation-stimulating effect on marrow cell of mouse (3H-TdR uptake)
- Format: cell-based, mouse (BALB/c)
- particulars: 10^0 μg/ml, percentage of control, 72 h
Measured activity at 1 µg/mL, listed per entry for reference.
Quick note: give the figure in %, leave out the unit.

Which value of activity at 1 µg/mL has been reported for CCCCCCCC/C=C\CCCCCCCC(=O)N[C@@H](CO[C@H]1O[C@H](CO)[C@H](O)[C@H](O)[C@H]1O)[C@H](O)CCCCCCCCCCCCCCC [Compound 29] in the records? 865

One more compound: CCCCCCCCCCCCCCCCCCCCCC[C@@H](O)C(=O)N[C@@H](CO[C@H]1O[C@H](CO)[C@H](O)[C@H](O)[C@H]1O)[C@H](O)[C@H](O)CCCCCCCCCCCCC [Compound 22] 613

One more compound: CCCCCCCCCCCCCCCCCCCCCCCCCC(=O)N[C@@H](CO[C@H]1O[C@H](CO)[C@H](O)[C@H](O)[C@H]1O)[C@H](O)[C@H](O)CCCCCCCCCCCCC [Compound 20] 982

One more compound: CCCCCCCCCCCCCCC[C@@H](O)[C@H](CO[C@H]1O[C@H](CO)[C@H](O)[C@H](O)[C@H]1O)NC(=O)CCCCCCC [Compound 7] 972

One more compound: CCCCCCCCCCCCCCCCCCCCCC(=O)N[C@@H](CO[C@H]1O[C@H](CO)[C@H](O)[C@H](O)[C@H]1O)[C@H](O)CCCCCCCCCCCCCCC [Compound 2] 915

---

Measured activity at 0.001 µg/mL, listed per entry for reference.
- Test system: marrow cells (mononuclear cell fraction)
- procedure.text: Proliferation-stimulating effect on marrow cell of mouse (3H-TdR uptake)
- Type: cell-based, mouse (BALB/c)
- particulars: 10^-3 μg/ml, percentage of control, 72 h
Quick note: give the figure in %, leave out the unit.

Consider the following illustrative entries.
Which value of activity at 0.001 µg/mL has been reported for CCCCCCCCCCCCCCCCCCCCCC[C@H](O)C(=O)N[C@@H](CO[C@H]1O[C@H](CO)[C@H](O)[C@H](O)[C@H]1O)[C@H](O)[C@H](O)CCCCCCCCCCCC(C)C [Compound 30] in the records? 92

One more molecule: CCCCCCCCCCCCCC(=O)N[C@@H](CO[C@H]1O[C@H](CO)[C@H](O)[C@H](O)[C@H]1O)[C@H](O)CCCCCCCCCCCCC [Compound 10] 77

One more molecule: CCCCCCCCCCCCCCCCCCCCCCCCCC(=O)N[C@@H](CO[C@H]1O[C@H](CO)[C@H](O)[C@H](O)[C@H]1O)[C@H](O)[C@H](O)CCCCCCCCCCCCC [Compound 20] 67

One more molecule: CCCCCCCCCCCCCCCCCCCC(=O)N[C@@H](CO[C@H]1O[C@H](CO)[C@H](O)[C@H](O)[C@H]1O)[C@H](O)CCCCCCCCCCCCCCC [Compound 3] 84

More entries:
Which value of activity at 0.001 µg/mL has been reported for CCCCCCCCCCCCCCCCCCCCCCCC(=O)N[C@@H](CO[C@H]1O[C@H](CO)[C@H](O)[C@H](O)[C@H]1O)[C@H](O)[C@H](O)CCCCCCCCCCCC(C)C [Compound 31] in the records? 101

---

Measured activity at 0.001 µg/mL, listed per entry for reference.
- Tested on: marrow cells (mononuclear cell fraction)
- procedure.text: Proliferation-stimulating effect on marrow cell of mouse (3H-TdR uptake)
- Format: cell-based, mouse (BALB/c)
- particulars: 10^-3 μg/ml, percentage of control, 72 h
Kindly report the value followed by its unit.

Give activity at 0.001 µg/mL (marrow cells (mononuclear cell fraction)) of the following compound: CCCCCCCCCCCCCCC[C@@H](O)[C@H](CO[C@H]1O[C@H](CO)[C@H](O)[C@H](O)[C@H]1O)NC(=O)CCCCCCC [Compound 7] 313%

One more compound: CCCCCCCCCCCCCCCCCCCCCCCC(=O)N[C@@H](CO[C@H]1O[C@H](CO)[C@H](O)[C@H](O)[C@H]1O)[C@H](O)[C@H](O)CCCCCCC [Compound 19] 173%

One more compound: CCCCCCCC/C=C\CCCCCCCC(=O)N[C@@H](CO[C@H]1O[C@H](CO)[C@H](O)[C@H](O)[C@H]1O)[C@H](O)CCCCCCCCCCCCCCC [Compound 29] 97%

One more compound: CCCCCCCCCCCCCCCCCCCCCC(=O)N[C@@H](CO[C@H]1O[C@H](CO)[C@H](O)[C@H](O)[C@H]1O)[C@H](O)CCCCCCCCCCCCCCC [Compound 2] 123%

One more compound: CCCCCCCCCCCCCCC[C@@H](O)[C@H](CO[C@H]1O[C@H](CO)[C@H](O)[C@H](O)[C@H]1O)NC(C)=O [Compound 8] 129%

More entries:
Give activity at 0.001 µg/mL (marrow cells (mononuclear cell fraction)) of the following compound: CCCCCCCCCCCCCCC[C@@H](O)[C@H](CO[C@H]1O[C@H](CO)[C@H](O)[C@H](O)[C@H]1O)NC(=O)CCCCCCCCCCCCC [Compound 5] 234%

One more compound: CCCCCCCCCCCCCCCCCCCCCCCCCC(=O)N[C@@H](CO[C@H]1O[C@H](CO)[C@H](O)[C@H](O)[C@H]1O)[C@H](O)[C@H](O)CCCCCCCCCCCCCC [Compound 33] 175%

One more compound: CCCCCCCCCCCCCCC[C@@H](O)[C@H](CO[C@H]1O[C@H](CO)[C@H](O)[C@H](O)[C@H]1O)NC(=O)CCCCCCCCC [Compound 6] 71%

One more compound: CCCCCCCCCCCCC/C=C/[C@@H](O)[C@H](CO[C@H]1O[C@H](CO)[C@H](O)[C@H](O)[C@H]1O)NC(=O)CCCCCCCCCCCCC [Compound 32] 115%
